Target: human GLP-1 receptor (human, UniProt P43220)
Sequence (P43220 24-463): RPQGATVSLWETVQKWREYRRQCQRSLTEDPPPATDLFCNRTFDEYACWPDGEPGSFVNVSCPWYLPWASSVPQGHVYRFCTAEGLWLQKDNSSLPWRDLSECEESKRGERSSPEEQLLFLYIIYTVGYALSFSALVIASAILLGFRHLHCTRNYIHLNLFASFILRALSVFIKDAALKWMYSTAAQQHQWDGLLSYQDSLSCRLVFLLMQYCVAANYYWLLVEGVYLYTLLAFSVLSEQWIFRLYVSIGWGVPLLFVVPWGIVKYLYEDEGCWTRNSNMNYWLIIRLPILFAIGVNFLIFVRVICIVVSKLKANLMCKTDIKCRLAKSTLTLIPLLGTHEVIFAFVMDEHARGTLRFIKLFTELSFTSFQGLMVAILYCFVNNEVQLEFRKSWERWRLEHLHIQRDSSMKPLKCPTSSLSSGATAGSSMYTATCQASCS
*1 amine or outer side, *2 acyl side, *3 side chain or, on linkers, in order; H or OH if unused. Where no end group is shown, it is not given here. Side-chain parts run from the residue outwards. [ ]: non-standard residue; d: D form. The star is where a group is joined. Dodecanoyl(12-OPh(4-COOH)) = O=C(O)c1ccc(OCCCCCCCCCCCC(=O)*)cc1; Decanoyl(10-O(3-COOH-Ph)) = O=C(O)c1cccc(OCCCCCCCCCC(=O)*)c1; γGlu = O=C(O)[C@H](CCC(=O)[*:2])N[*:1]; C14 diacid = O=C(O)CCCCCCCCCCCCC(=O)*; AEEA = NCCOCCOCC(=O)O; Aib = CC(C)(N)C(=O)O
Give EC50/pM (1% HSA) for every item shown.
Numbers only, in pM.

Some entries whose results are on file:
[[record]]
binder = "H[Aib]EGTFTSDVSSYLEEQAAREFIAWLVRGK([AEEA-AEEA-γGlu-γGlu-C14 diacid])K([AEEA-AEEA-γGlu-γGlu-C14 diacid]) [GLP-1 derivative of Example 21]"
measuredquantity = "EC50/pM (1% HSA)"
u = "pM"
observedvalue = 13

[[record]]
binder = "H[Aib]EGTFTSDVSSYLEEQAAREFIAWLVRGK([AEEA-AEEA-γGlu-Dodecanoyl(12-OPh(4-COOH))])K([AEEA-AEEA-γGlu-Dodecanoyl(12-OPh(4-COOH))]) [GLP-1 derivative of Example 26]"
measuredquantity = "EC50/pM (1% HSA)"
u = "pM"
observedvalue = 124

[[record]]
binder = "H[Aib]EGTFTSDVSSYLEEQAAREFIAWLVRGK([AEEA-AEEA-γGlu-Decanoyl(10-O(3-COOH-Ph))])K([AEEA-AEEA-γGlu-Decanoyl(10-O(3-COOH-Ph))]) [GLP-1 derivative of Example 15]"
measuredquantity = "EC50/pM (1% HSA)"
u = "pM"
observedvalue = 44


Here is another binder to look at.
[ask] Data request, read-out EC50/pM (1% HSA), for H[Aib]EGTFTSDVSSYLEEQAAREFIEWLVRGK([AEEA-AEEA-AEEA-AEEA-γGlu-Decanoyl(10-O(3-COOH-Ph))])K([AEEA-AEEA-AEEA-AEEA-γGlu-Decanoyl(10-O(3-COOH-Ph))]) [GLP-1 derivative of Example 28]
[reply] 25

Where do the numbers come from? From patent US10689429B2.
